Biological target: CDK9 (Homo sapiens, UniProt P50750)
Construct: host or cells: HEK293-CDK9-Hibit
Sequence (P50750 whole entry): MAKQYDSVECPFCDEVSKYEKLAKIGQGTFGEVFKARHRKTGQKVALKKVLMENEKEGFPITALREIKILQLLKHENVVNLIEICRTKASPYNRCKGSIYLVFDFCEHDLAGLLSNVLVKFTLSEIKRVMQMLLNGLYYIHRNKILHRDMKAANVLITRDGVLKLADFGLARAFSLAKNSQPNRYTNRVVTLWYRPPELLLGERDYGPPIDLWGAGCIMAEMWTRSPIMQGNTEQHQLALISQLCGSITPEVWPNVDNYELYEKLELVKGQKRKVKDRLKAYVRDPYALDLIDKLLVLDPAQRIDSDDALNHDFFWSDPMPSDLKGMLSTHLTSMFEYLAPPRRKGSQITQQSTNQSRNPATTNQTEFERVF
Test: HiBit Assay Protocol for CDK9 (HIBIT protein quantification, degradation)
Assay type: cell-based
Settings: 6 h, HEK293-CDK9-Hibit cells, compound treatment for 6 hours; read-out: CDK9 HIBIT Protein Quantification Maximum
Readout type: Dmax (%)

Solved cases (5 shown):
Compound: Cn1nc(N2CCC(=O)NC2=O)c2ccc(C3CCN(Cc4cccc(S(=O)(=O)N5CCC(Nc6ncc7c(n6)N([C@@H]6CCC[C@@H](O)C6)C(=O)C76CC6)CC5)c4)CC3)c(F)c21 [Compound 175]
Dmax / %: 8

Compound: CC1CCCC1N1C(=O)C2(CC2)c2cnc(NC3CCN(S(=O)(=O)N4CC5(CCCCN5C(=O)CCCc5cccc6c5n(C)c(=O)n6C5CCC(=O)NC5=O)C4)CC3)nc21 (stereo not shown) [Compound 26]
Dmax / %: 9

Compound: CC1CCCC1N1C(=O)C2(CC2)c2cnc(NC3CCN(S(=O)(=O)C4CCN(C(=O)CCCCCCCCCc5cccc6c5n(C)c(=O)n6C5CCC(=O)NC5=O)C4)CC3)nc21 (stereo not shown) [Compound 53]
Dmax / %: 36

Compound: Cn1nc(N2CCC(=O)NC2=O)c2ccc(C3CCN(Cc4cccc(S(=O)(=O)N5CCC(Nc6ncc7c(n6)N([C@@H]6CCC[C@@H](O)C6)C(=O)C76CC6)CC5)c4)CC3F)cc21 (stereo partly shown) [Compound 180]
Dmax / %: 34

Compound: CC1CCCC1N1C(=O)C2(CC2)c2cnc(NC3CCN(S(=O)(=O)N4CC(N(C)C(=O)CCCc5ccc6c(c5)n(C)c(=O)n6C5CCC(=O)NC5=O)C4)CC3)nc21 (stereo not shown) [Compound 61]
Dmax / %: 23

P. CC1CCCC1N1C(=O)C2(CC2)c2cnc(NC3CCN(S(=O)(=O)N4CCCC45CCN(C(=O)CCCCCc4ccc6c(c4)n(C)c(=O)n6C4CCC(=O)NC4=O)C5)CC3)nc21 (stereo not shown) [Compound 74]
Q. CC1CCCC1N1C(=O)C2(CC2)c2cnc(NC3CCN(S(=O)(=O)N4CCC5(CCN(C(=O)CCCCCCCCCc6cccc7c6n(C)c(=O)n7C6CCC(=O)NC6=O)C5)C4)CC3)nc21 (stereo not shown) [Compound 52]
R. CC1CCCC1N1C(=O)C2(CC2)c2cnc(NC3CCN(S(=O)(=O)N4CC5(CN(C(=O)CCCCc6cccc7c6n(C)c(=O)n7C6CCC(=O)NC6=O)C5)C4)CC3)nc21 (stereo not shown) [Compound 97]
S. CC1CCCC1N1C(=O)C2(CC2)c2cnc(NC3CCN(S(=O)(=O)N4CCCN(C(=O)CCCc5cccc6c5n(C)c(=O)n6C5CCC(=O)NC5=O)CC4)CC3)nc21 (stereo not shown) [Compound 33]
T. CC1CCCC1N1C(=O)C2(CC2)c2cnc(NC3CCN(S(=O)(=O)N4CCC5(CCCN5C(=O)CCc5ccc6c(c5)n(C)c(=O)n6C5CCC(=O)NC5=O)C4)CC3)nc21 (stereo not shown) [Compound 56]
Request: Order by Dmax, ascending. To answer, arrange all of the labels according to the requested order.
Result: S, P, T, Q, R
